Entries and their measured IC50 follow.
Target: menin (Homo sapiens, UniProt O00255, T541A)
Construct: Menin (a.a. 1-610-6×his tag)
Sequence (O00255 with tags, fused parts or gaps T541A): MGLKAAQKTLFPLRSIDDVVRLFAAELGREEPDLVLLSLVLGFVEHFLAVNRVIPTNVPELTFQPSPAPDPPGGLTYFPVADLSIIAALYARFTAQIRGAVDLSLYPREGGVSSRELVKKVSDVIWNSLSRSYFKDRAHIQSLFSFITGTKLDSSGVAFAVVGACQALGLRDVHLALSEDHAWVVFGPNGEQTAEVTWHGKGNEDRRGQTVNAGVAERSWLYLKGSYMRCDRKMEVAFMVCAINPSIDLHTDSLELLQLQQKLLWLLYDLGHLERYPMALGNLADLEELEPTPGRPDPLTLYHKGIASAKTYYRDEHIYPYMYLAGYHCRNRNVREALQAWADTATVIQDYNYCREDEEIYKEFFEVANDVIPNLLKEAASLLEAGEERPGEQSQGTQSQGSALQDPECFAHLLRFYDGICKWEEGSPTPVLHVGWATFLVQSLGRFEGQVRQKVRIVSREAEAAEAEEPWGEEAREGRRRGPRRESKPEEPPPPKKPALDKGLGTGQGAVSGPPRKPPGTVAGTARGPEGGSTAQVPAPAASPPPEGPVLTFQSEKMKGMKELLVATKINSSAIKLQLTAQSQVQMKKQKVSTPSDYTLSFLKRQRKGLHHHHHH
Experiment: Menin/MLL homogenous time-resolved fluorescence (HTRF) assay
Type: binding
Conditions: location 2; read-out: (2) location 2 Menin HTRF assay (IC50 (nM))
Write down the numeric answer in nM and omit the unit.

>>> print(df.to_string())
                                   compound  meas_value
0  CNC(=O)c1ccc(NC2CC3(CCN(c4ncnc5sc(CC(F)(F)F)cc45)C3)C2)cc1Cl (mixture of isomers)         9.4

Query: If you can, please state the reported IC50 value of FC(F)(F)Cc1cc2c(N3CC[C@]4(CC[C@H](Nc5ccc(-c6cc[nH]n6)cc5)C4)C3)ncnc2s1 (stereo in doubt) .
Response: 45.7

Query: If you can, please state the reported IC50 value of N#CCn1c(=O)[nH]c2cc(NC3CC4(CCN(c5ncnc6sc(CC(F)(F)F)cc56)C4)C3)ccc21 (single isomer, unassigned) [Compound 358] .
Response: 5.3

Query: If you can, please state the reported IC50 value of Cn1c(=O)[nH]c2cc(NC3CC4(CCN(c5ncnc6sc(CC(F)(F)F)cc56)C4)C3)ccc21 (single isomer, unassigned) [Compound 90] .
Response: 20.2

Query: If you can, please state the reported IC50 value of CNC(=O)c1ccc(NC2CCC3(CCN(c4ncnc5sc(CC(F)(F)F)cc45)C3)C2)cc1 (stereo not drawn) .
Response: 4.1

Query: If you can, please state the reported IC50 value of CNC(=O)c1ccc(NC2CC3(CCN(c4ncnc5sc(CC(F)(F)F)cc45)C3)C2)c(F)c1F (single isomer, unassigned) [Compound 227] .
Response: 80.2
